Hi there, I'd appreciate the recorded Percent Effect for every entry that follows.
measured.target: Aspartate--tRNA(Asp/Asn) ligase (Mycobacterium tuberculosis (strain ATCC 25618 / H37Rv)); also: in the data most compounds retested in dose-response had high values
measurement.notes: Assay for Asp RNA synthetase-1 from Mycobacterium tuberculosis
Assay type: functional
Set-up: scale not given: direction of the effect not stated beside the values
experimental.setup: 30 µM
Note: unit % is implicit; provide only the numeric part.

Record summary for Cc1ccc(-c2nc(CN3CCn4c(nnc4C4CC4)C3)co2)cc1 : reported Percent Effect = -1.28

Record summary for Cc1ccccc1-n1ncc(C(=O)N2CCCC2c2cnn(C)c2)c1C (stereo not given) : reported Percent Effect = 0.583

Record summary for C[C@@H]1CN(C(=O)c2ccsc2)C[C@]12CCN(c1ccsc1)C2=O : reported Percent Effect = -1.75

Record summary for Cc1nc(CN2C[C@@H]3OCCN(c4ncc(F)cn4)[C@@H]3C2)cs1 : reported Percent Effect = -1.08

Record summary for Cc1cnn(CC2CCCN2c2nn3cc(C)nc3s2)c1 (stereo not given) : reported Percent Effect = -9.79

Record summary for Cc1occc1C(=O)N1CCC[C@]2(C[C@@H](OCc3ccncc3)CO2)C1 : reported Percent Effect = 6.93

Record summary for CN1CCCCC1c1ncc2c(n1)CCN(Cc1ccccc1Cl)C2 (stereo not given) : reported Percent Effect = 3.02

Record summary for COC[C@H]1CCC[C@]12CN(CCc1ccccc1)CCO2 : reported Percent Effect = -1.02

Record summary for CCc1nc(C2CCCN2CCn2cncn2)no1 (stereo not given) : reported Percent Effect = 0.0232

Record summary for CCS(=O)(=O)N1CCC(c2nnc(Cn3cccn3)n2C2CC2)CC1 : reported Percent Effect = -3.09

* * *

measured.target: Sialic acid-binding Ig-like lectin 9 (Homo sapiens)
measurement.notes: Hs-Siglec9 ALPHAscreen SOP 20170721
Parameters: scale not given: direction of the effect not stated beside the values
experimental.setup: 10 µM
Hi there, I'd appreciate the recorded Percent Effect for every entry that follows.

The recorded Percent Effect with Sialic acid-binding Ig-like lectin 9 (Homo sapiens) for CNCCc1nc2cc(Cl)ccc2[nH]1 was -5.75%

The recorded Percent Effect with Sialic acid-binding Ig-like lectin 9 (Homo sapiens) for CC(C)(C)n1cc(C2=CCN(CCc3ccccc3)CC2)cn1 was -1.87%

The recorded Percent Effect with Sialic acid-binding Ig-like lectin 9 (Homo sapiens) for CN1CCC2(CC1)C(=O)N(CC1CC1)c1ccccc12 was -0.296%

* * *

measured.target: Aspartate--tRNA(Asp/Asn) ligase (Mycobacterium tuberculosis (strain ATCC 25618 / H37Rv)) (UniProt P9WFW3); also: in the data most compounds retested in dose-response had high values
Sequence (P9WFW3 whole entry): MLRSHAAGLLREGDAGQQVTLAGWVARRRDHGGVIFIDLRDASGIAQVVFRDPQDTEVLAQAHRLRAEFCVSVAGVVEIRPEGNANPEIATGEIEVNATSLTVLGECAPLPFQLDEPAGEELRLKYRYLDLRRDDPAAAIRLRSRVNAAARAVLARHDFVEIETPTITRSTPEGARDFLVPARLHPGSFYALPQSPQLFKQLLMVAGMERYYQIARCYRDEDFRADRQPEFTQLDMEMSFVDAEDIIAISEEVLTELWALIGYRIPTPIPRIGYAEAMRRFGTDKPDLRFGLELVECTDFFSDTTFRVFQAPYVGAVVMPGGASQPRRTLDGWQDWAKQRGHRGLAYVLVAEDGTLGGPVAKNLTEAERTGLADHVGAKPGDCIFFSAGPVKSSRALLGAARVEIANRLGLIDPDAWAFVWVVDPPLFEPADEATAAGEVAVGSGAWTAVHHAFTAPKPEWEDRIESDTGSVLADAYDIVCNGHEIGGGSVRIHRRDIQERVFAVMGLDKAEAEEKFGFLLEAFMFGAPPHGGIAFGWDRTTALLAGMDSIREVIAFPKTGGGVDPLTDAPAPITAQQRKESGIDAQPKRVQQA
measurement.notes: Assay for Asp RNA synthetase-1 from Mycobacterium tuberculosis
Type: functional
Design: scale not given: direction of the effect not stated beside the values
experimental.setup: 30 µM
result.type: Percent Effect

Record summary for CN(C)S(=O)(=O)N1C[C@@H]2CC[C@H](C1)N(Cc1ccc3nsnc3c1)C2 : reported Percent Effect = -2.42%

Record summary for CCCc1n[nH]c(C2CN(C(=O)c3ccco3)CCO2)n1 (configuration not stated) : reported Percent Effect = -0.955%

Record summary for O=C(CCC1CCCC1)NCCn1nc(C2CCNC2)c2nccnc21 (configuration not stated) : reported Percent Effect = 1.74%

Record summary for COc1ccc(-n2cnnc2SCCC#N)cn1 : reported Percent Effect = -0.885%

Record summary for CN1CCC2(CC1)CNC(=O)c1ccccc1O2 : reported Percent Effect = -2.4%

Record summary for NC(=O)C1CCN(C(=O)c2cccc(CN3CCOCC3)c2)CC1 : reported Percent Effect = -1.59%

Record summary for CCc1nc(C)c(C(=O)N2C[C@H]3CC[C@@H]2CN(S(=O)(=O)N(C)C)C3)s1 : reported Percent Effect = -1.85%

Record summary for CN(Cc1ccccc1F)C(=O)CS(=O)(=O)Cc1ccc(Cl)c(Cl)c1 : reported Percent Effect = 2.16%

Record summary for CNS(=O)(=O)Cc1ccc(CNC(=O)Nc2cccnc2)cc1 : reported Percent Effect = -0.514%

Record summary for Cc1noc2nc(C3CCN(Cc4cccnc4)CC3)cc(C(F)F)c12 : reported Percent Effect = 1.32%

Record summary for c1cnn(Cc2cn3c(n2)CN(Cc2nccs2)CC3)c1 : reported Percent Effect = -2.35%

Record summary for Cc1cc(NC(=O)NCC(C)O)n(C)n1 (configuration not stated) : reported Percent Effect = -2.68%

Record summary for Cc1cc(C)n(C2CCCN(C(=O)COCC(F)(F)F)C2)n1 (configuration not stated) : reported Percent Effect = -4.61%

Record summary for CNc1cccc(C2CCCN(C(C)=O)C2)n1 (configuration not stated) : reported Percent Effect = 7.52%

Record summary for O=C(C[C@@H]1COC[C@H]2CN(Cc3ccncc3)C[C@@H]12)N1CCOCC1 : reported Percent Effect = -4.65%

Record summary for O=S(=O)(NCc1ccccc1Cn1cncn1)C1CCCC1 : reported Percent Effect = 1.56%

Record summary for Cn1ncc2c(=O)[nH]c(CN(Cc3ccco3)C3CCCC3)nc21 : reported Percent Effect = -7.5%

Record summary for Cn1cc(CN2CC[C@@H]3O[C@H](C(=O)N4CCOCC4)C[C@@H]32)cn1 : reported Percent Effect = 0.521%

Record summary for O=C(Cc1ccc(F)cc1)N1CCN(CC(O)C2CC2)CC1 (configuration not stated) : reported Percent Effect = 0.575%

Record summary for CCS(=O)(=O)c1ccc(N2CCC(NC(C)=O)CC2)cc1 : reported Percent Effect = 1.78%

Record summary for c1csc(-c2nc(CNC3CCc4ncnn4C3)co2)c1 (configuration not stated) : reported Percent Effect = 1.3%

Record summary for Cc1nc(C(=O)N2CCCC(c3cccc(-n4ccnc4)n3)C2)co1 (configuration not stated) : reported Percent Effect = -0.67%

Record summary for COc1cccc(COCC(=O)N2CCCC(N3CCCC3)CC2)c1 (configuration not stated) : reported Percent Effect = -5.12%

Record summary for Cc1cnn(CC2CCCN2C(=O)CCCc2nc(C)no2)c1 (configuration not stated) : reported Percent Effect = -0.389%

Record summary for Cc1nc(CN2CCn3cc(CNC(=O)C4CCC4)nc3C2)cs1 : reported Percent Effect = 11%

Record summary for Cc1ccccc1CSCCn1nc2ccccn2c1=O : reported Percent Effect = -1.33%

Record summary for Cc1nc2ccccc2c(=O)n1CCC(=O)N1CCNC(=O)C1 : reported Percent Effect = -5.81%

Where do the numbers come from? From ChEMBL document CHEMBL3988442.
